RUN DESCRIPTION: folding stability dG unfold from chymotrypsin proteolysis; higher = more stable
MEASURED PROPERTY: folding stability dG unfold

| SEQ STRING | VALUE |
| --- | --- |
| SAGGMMYLIKVDTKEELKELAEAPGAKIVEEKEVNGKLYLLIEFPPGVTKIKIDVETRKIVEIEKLPSAGGS [r8_251_TrROS_Hall] | 1.58 kcal/mol |
| SAGGSAGGSAMKIELTVPPGEEAELEARAKALAEAEGVEVVSVSKSPEGTYTMTVLNTVPPESAGGSAGGSA [r18_351_JUSTAS] | -0.164 kcal/mol |
| SAGGSAPFPIKISTIRYPDGYIRMEIWIPPDAPIKIKFPNGFEMEVEPVPNGYYRITMYFRIPKEDSAGGSA [r15_523_TrROS] | 4.79 kcal/mol |
| SAGGSAGGSAGGEDLKINIKISEITFSPDGWITMSMRGGNGRWFQHTIKVKIKLPPGDPSAGGSAGGSAGGS [r10_281_TrROS] | 3.15 kcal/mol |
| SAGGSAGGPKWRRYTIPLDKIKEIDPGGTVTLDDIQDLGLPPDHEIRVVPRPDGEPWVSIEVPYSAGGSAGG [r6_553_TrROS] | 0.506 kcal/mol |
| SAGGSAGGSAGSSPSDLKVTLKVTLPDGTVLTVVMPAHATLDDFPADRPVTVTTLETKLESAGGSAGGSAGG [r11_997_JUSTAS] | 0.656 kcal/mol |
| SAGGSGMMLEEGVGVDPTTGELHRFTYLREPERPPVEVTVTTTTVVYTTPDGTTVTVTTTTTLEGGSAGGSA [r2_326_JUSTAS] | 0.786 kcal/mol |

---

folding stability dG unfold values by entry
RUN DESCRIPTION: folding stability dG unfold from chymotrypsin proteolysis; higher = more stable

| SEQ STRING | folding stability dG unfold / kcal/mol |
| --- | --- |
| SAGGSAGGSAGGSWLVRIPGHPIIFKGPEDQAEGIARELQKNGKPIEIEIIDPDEMKKFSAGGSAGGSAGGS [r4_131_TrROS] | 1.12 |
| SAGGSAGGMKVVVKFTVRPRDPDTDEAVPAELVLEFDSLEEALAAAEELAALPEGTEIEIEVLTSAGGSAGG [r6_999_TrMRF] | 1.76 |
| SAGGSAGGSAGWRTHSHWVPPDNIPELAERIQDWGVKVEIERDPKDGWYRVTITIPDDFISAGGSAGGSAGG [r11_1043_TrROS] | 1.38 |
| SAGMTIVIGAPPELSLEEAVEKAIEAVEALFPDKLKPGSKIKVIVRVYDPETGSVDEVTVEIDVPPGALSAG [r5_916_TrMRF] | 1.99 |
| SAGGPMYIVIKVEVWNPDNGKKREINIVIPIPPGMTPEQMLEKAKELARTIAEENGYEVRIDEIHIFSAGGS [r8_312_TrROS] | 2.86 |
| SAGGSAMEEEKPPKVKVRITVELEDGEKLEIEFETKEEAEEAAEALAKELEEKTGLKIKKIEVEEVSAGGSA [r15_140_TrROS_Hall] | 2.96 |
| SAGGRLVRIKVDIYSPGDGEPHEFEFLLHVDANGSVEIYFPNGKRIRIPPNMKVKIKDIEVLDPDQISAGGS [r16_223_TrROS] | 3.45 |

---

RUN DESCRIPTION: folding stability dG unfold (combined trypsin and chymotrypsin); higher = more stable

| SEQ STRING | REPORTED RELATION | folding stability dG unfold [kcal/mol] |
| --- | --- | --- |
| SMSEKVEIDPAAIAEALKAGTEYEFDIKVTVTLFDPSNGKKVSTEEKVVKVKLKIPPPSPLPDPKNGYLLSA [r9_396_JUSTAS] | = | 1.29 |
| SAGGKPRILLRRETAPDGRPYYVLQVLRRDPSDDGWTPVLEHRFETPEEAERYARELAEKTGYELVGSAGGS [r16_512_TrMRF] | = | 4.72 |
| SAGGSAGGGIEEELRRVLPEDATVTIEEVPERPLLVVTVTFPERAETRTFTFSPESPEKLIEALSAGGSAGG [r6_612_JUSTAS] | = | 0.679 |
| SAGGSALPPHAVRVLVVTATDTDPGAAAARIAEEFRRKYPNTRVLTRPFDVPPGRPAVVAVVYVDESAGGSA [r15_916_TrMRF] | = | 2.08 |
| SAGGSAETLVITLPPELEGLSEEELLALLKALLPPGAEITEIRVERLPDGSLRVTVTVRVPPPEEPSAGGSA [r15_451_TrROS_Hall] | = | 2.65 |
| SAGGSAMTKVTVTFDPVTGTYTIKTTDSKGPSEYPLPKSFLEKTPLSEVAKKLNLNISEFTIEPNPSAGGSA [r15_801_JUSTAS] | = | 1.14 |
| SAGGEIERDPNGWIRMTYTLPGFGYKIEITFRVPDNGMMQIEDIDIEPIPPVPPPPPPKYDPNGEWKYSAGG [r13_646_TrROS] | = | 2.02 |
| SAGSVTVEVFGPGRLLATYTLDDTTTTVAVPPEPVRVRIRSPGDDAEATADADPATGVVTVTVPADLGLSAG [r5_469_JUSTAS] | = | 0.165 |
| SAGGSAGGSAGKLPPGAKVEEVFEVEIEVTYLNPDTGEEVEKEKITVRVVKVDGKLVIEFSAGGSAGGSAGG [r11_415_TrROS_Hall] | = | 2.04 |
| SAGGSAGGSAGEPEIEIEVEERDGELVLRARVRDRETGEEYEVVVRVRPDGPIEITEIRPSAGGSAGGSAGG [r17_113_TrROS_Hall] | = | 2.72 |
| SAGGSAGGSAGGSKKEKYYLVTRIEVEVNGKKYPLGSKLPKNLPPGAKIKIETRIVKLDSAGGSAGGSAGGS [r4_436_TrROS_Hall] | = | 1.83 |
| SAGGSANGYFILIKIEEIKLTKMRRDPDGKQWQWNFSVKIKIEVVKVFRIKPDPNGNWKIEPGDPISAGGSA [r15_162_TrROS] | = | 3.25 |
| SAGGGMKLTITVTNADGSTTTETLTLGDLEKALEFLESDPTASLASIEIKPVPDTSEVEMNVSLTVPASAGG [r13_796_JUSTAS] | = | 1.47 |
| SAGGSMTELIPTPPSATTLNVTKTVPDPRTGTTVTTNVTVEVVPEGDGYVATVYYDPSGRPVKRSLSAGGSA [r2_123_JUSTAS] | < | -1 |
| SAGGKKKAKAYIVEKTTEKEGLKYYKVLIELGGKPLVFVIKSTSLEEVEEAIKKLAEELGVEVEIVPGSAGG [r13_750_TrMRF] | = | 4.53 |
| SMITIEINVGNKKYTVEIVPEKGIIKITDPNGTPIGEGEIKPDSIDITLTKPNTDETYKFTFPIPPESLPSA [r9_963_JUSTAS] | = | 2.69 |
| SAGGSAGGSIKPGEEVTINFLVPPGNIPEFANELMKQDGIKDIEVKYQPFPNWYMVDITIRVKSAGGSAGGS [r12_993_TrROS] | = | 0.52 |
| SAGGSAGGSAGGSMKTEEVVYVKTPDAWVRLKKEEAEKLEKETGVKIERESFTLPAGALESAGGSAGGSAGG [r7_185_JUSTAS] | = | 0.405 |
| SAGGMKVRVRLPDGTEVELEVTEVTVSTDPSTGTPVYTITLANGEKLTVTVPVDKPVRPGETVTVTPESAGG [r13_390_JUSTAS] | = | 3.81 |
| SAGGSAIENQFLRITMYHGNKPHTWTFPIKKVDIDPEDGNIEVYFPPEFRELFGGPMRITDIEFPPSAGGSA [r15_710_TrROS] | = | 1.46 |
| SAGGSAGGMIYADNPEEFKKVVKELLKKHPKNKPVFAVLTGSNSKYVIYLSGDKLEKVLAFPVPSAGGSAGG [r6_288_TrMRF] | = | 1.38 |
| SAGGATLTEPETTVEVRFEKLPDGTVIRTTTTITPEGVTTTTEPVPVPPSPGASSEEELEALRAAAAAASAG [r5_272_JUSTAS] | = | 1.6 |
| SAGGMYKVKIYFEDTKEEIEIEASAEEVLEAIKNGDLDALKKLFPGAKIVKIEVEKVEPEPEEEEEEESAGG [r13_629_TrROS_Hall] | = | 3.44 |
| SAGIKPGDPLIIKFNFPPEARDKIKKLLEDPGFTYENDPDKGSVSIVFPAADVDRLQDLPGISEIVPVSAGG [r19_212_TrROS] | < | -1 |
| SAGGSAGGKKEIKIYLVSDLPEEDAIETAEKIKKGLAEELGVSPEELNITVEVAILDPENLELNPESAGGSA [r15_918_TrMRF] | = | 0.1 |
| SAGGSAGGSEYRIELELFRTPEGGLVVPVRIYPPDGGRFEGPASLEELVERFGFSFPPLLELLSAGGSAGGS [r20_235_TrMRF] | = | 2.15 |
| SAGMTIVVEVPKKDITPEELAKKLEERFGLKVVEIKVEEVEEDKVRVTIRFEETGETLELTAEEIKELLSAG [r5_550_TrROS_Hall] | = | 4.19 |
